assay: Inhibition of FGFR3 in human RT112 cells assessed as suppression of cell proliferation after 72 hrs by SRB/CCK-8 assay
Measurement Label: IC50

[in] Fill in reported IC50 for this entry: COc1cc(CCc2cc(Nc3ncnc4cc(N5CCN6CCCCC6C5)ccc34)n[nH]2)cc(OC)c1 (stereo unspecified)
[out] < 0.2 nM

----------
assay: Inhibition of FGFR1 in human H1581 cells assessed as suppression of cell proliferation after 72 hrs by SRB/CCK-8 assay
Measurement Label: IC50

[in] Supply IC50 value. Item: COc1cc(CCc2cc(Nc3ncnc4cc(N5CCN6CCCCC6C5)ccc34)n[nH]2)cc(OC)c1 (stereo unspecified)
[out] < 0.5 nM

Hello, the source for this data is BindingDB's records for doi:10.1016/j.bmcl.2016.04.028, in case you need it.
